Target: interaction between PD-1 and PD-L1 (Homo sapiens, UniProt Q9NZQ7)
Sequence (Q9NZQ7 19-238 limits assumed): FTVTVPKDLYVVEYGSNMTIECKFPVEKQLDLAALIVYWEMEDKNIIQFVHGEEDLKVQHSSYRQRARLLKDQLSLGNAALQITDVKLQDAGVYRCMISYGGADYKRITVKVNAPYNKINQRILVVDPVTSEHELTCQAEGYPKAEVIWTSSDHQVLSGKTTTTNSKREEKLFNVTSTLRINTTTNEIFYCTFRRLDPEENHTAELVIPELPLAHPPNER
Assay: PD1-PDL1 HTRF binding activity test
Details: Cisbio PD-1/PD-L1 binding assay kit; percent inhibition vs DMSO
EXPERIMENTAL ENDPOINT: pIC50
Quick note: pIC50 values are minus log10 of concentrations in mol/L.

What pIC50 value was documented for this molecule, Cc1c(NC(=O)c2cc(C3CC3)c(CN[C@H](CO)C(=O)O)cn2)cccc1-c1cccc(NC(=O)c2cc(C3CC3)c(CN3CC[C@@H](O)C3)cn2)c1C [Example 53] ?
8.44

For CCOC(=O)[C@@H](CO)NCc1cnc(C(=O)Nc2cccc(-c3cccc(NC(=O)c4cc(C5CC5)c(CNCCO)cn4)c3C)c2C)cc1C1CC1 [Example 35-1] then?
8.52

For Cc1c(NC(=O)c2cc(C3CC3)c(CNCCO)cn2)cccc1-c1cccc(NC(=O)c2cc(C3CC3)c(CN[C@@H](CO)C(=O)O)cn2)c1C [Example 37] then?
9.02

For CCOC(=O)[C@@H](CO)NCc1cnc(C(=O)Nc2cccc(-c3cccc(NC(=O)c4cc(C5CC5)c(CN5CCCC[C@H]5C(=O)O)cn4)c3C)c2C)cc1C1CC1 [Example 29] then?
8.79

For Cc1c(NC(=O)c2cc(C3CC3)c(CN3CCCC3)cn2)cccc1-c1cccc(NC(=O)c2cc(C3CC3)c(CN3CCCC[C@H]3C(=O)O)cn2)c1C [Example 12] then?
8.99

For Cc1c(NC(=O)c2cc(C3CC3)c(CNC3CCOCC3)cn2)cccc1-c1cccc(NC(=O)c2cc(C3CC3)c(CN[C@H](CO)C(=O)O)cn2)c1C [Example 51] then?
8.69

----------
Target: interaction between PD-1 and PD-L1 expressed on cell surfaces (Jurkat/NF-κB-luc/PD1 cells cocultured with Raji-PD-L1 cells) (Homo sapiens, UniProt Q9NZQ7)
Construct: Jurkat cells (PD-1, NF-κB-luc reporter)
Sequence (Q9NZQ7 19-290): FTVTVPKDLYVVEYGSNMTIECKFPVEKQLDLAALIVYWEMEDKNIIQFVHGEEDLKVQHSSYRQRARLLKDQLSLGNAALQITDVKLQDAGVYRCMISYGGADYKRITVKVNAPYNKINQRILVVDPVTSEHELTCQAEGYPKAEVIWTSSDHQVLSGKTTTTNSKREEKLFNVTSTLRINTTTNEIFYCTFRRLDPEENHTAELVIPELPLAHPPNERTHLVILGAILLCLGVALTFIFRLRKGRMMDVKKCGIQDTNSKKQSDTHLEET
Experiment: Jurkat reporter gene cellular assay
Conditions: OKT3 1 μg/mL stimulation, 6 hrs, activation fold vs DMSO
EXPERIMENTAL ENDPOINT: pEC50
Quick note: pEC50 values are minus log10 of concentrations in mol/L.

What pEC50 value was documented for this compound, "Cc1c(NC(=O)c2cc(C3CC3)c(CN[C@H](C)CO)cn2)cccc1-c1cccc(NC(=O)c2cc(C3CC3)c(CN[C@H](CO)C(=O)O)cn2)c1C" ?
7.43

For "Cc1c(NC(=O)c2cc(C3CC3)c(CN[C@H](CO)C(=O)O)cn2)cccc1-c1cccc(NC(=O)c2cc(C3CC3)c(CN3CC[C@@H](O)C3)cn2)c1C" then?
7.06

For "Cc1c(NC(=O)c2cc(C3CC3)c(CN3CC[C@H](O)C3)cn2)cccc1-c1cccc(NC(=O)c2cc(C3CC3)c(CN3CCCC[C@H]3C(=O)O)cn2)c1C" then?
8.09

For "Cc1c(NC(=O)c2cc(C3CC3)c(CN[C@H](CO)C(=O)O)cn2)cccc1-c1cccc(NC(=O)c2cc(C3CC3)c(CN3CCC[C@H]3CO)cn2)c1C" then?
7.21

For "Cc1c(NC(=O)c2cc(C3CC3)c(CN[C@H](C)CO)cn2)cccc1-c1cccc(NC(=O)c2cc(C3CC3)c(CN3CCCC[C@H]3C(=O)O)cn2)c1C" then?
8.04

----------
Please provide measured pEC50 for the entries that follow.
Target: interaction between PD-1 and PD-L1 expressed on cell surfaces (Jurkat/NF-κB-luc/PD1 cells cocultured with Raji-PD-L1 cells) (Homo sapiens, UniProt Q9NZQ7)
Construct: Jurkat cells (PD-1, NF-κB-luc reporter)
Test: Jurkat reporter gene cellular assay
Conditions: OKT3 1 μg/mL stimulation, 6 hrs, activation fold vs DMSO
Quick note: pEC50 values are minus log10 of concentrations in mol/L.

What pEC50 value was documented for this molecule, "Cc1c(NC(=O)c2cc(C3CC3)c(CN[C@@H]3CCC[C@H]3O)cn2)cccc1-c1cccc(NC(=O)c2cc(C3CC3)c(CN3CCCC[C@H]3C(=O)O)cn2)c1C" ?
7.31

For "Cc1c(NC(=O)c2cc(C3CC3)c(CN3CC[C@@H](O)C3)cn2)cccc1-c1cccc(NC(=O)c2cc(C3CC3)c(CN3CCCC[C@H]3C(=O)O)cn2)c1C" then?
7.93

For "Cc1c(NC(=O)c2cc(C3CC3)c(CN3CCC[C@@H]3CO)cn2)cccc1-c1cccc(NC(=O)c2cc(C3CC3)c(CN3CCCC[C@H]3C(=O)O)cn2)c1C" then?
7.45

For "CCOC(=O)[C@@H](CO)NCc1cnc(C(=O)Nc2cccc(-c3cccc(NC(=O)c4cc(C5CC5)c(CNCCO)cn4)c3C)c2C)cc1C1CC1" then?
6.64

For "Cc1c(NC(=O)c2cc(C3CC3)c(CN[C@H]3CCC[C@@H]3O)cn2)cccc1-c1cccc(NC(=O)c2cc(C3CC3)c(CN3CCCC[C@H]3C(=O)O)cn2)c1C" then?
8.49

For "Cc1c(NC(=O)c2cc(C3CC3)c(CNC3CCCC3)cn2)cccc1-c1cccc(NC(=O)c2cc(C3CC3)c(CN3CCCC[C@H]3C(=O)O)cn2)c1C" then?
7.84

For "Cc1c(NC(=O)c2cc(C3CC3)c(CN[C@@H](CO)C(=O)O)cn2)cccc1-c1cccc(NC(=O)c2cc(C3CC3)c(CN3CCCC[C@H]3C(=O)O)cn2)c1C" then?
7.35

For "Cc1c(NC(=O)c2cc(C3CC3)c(CNC(C)C)cn2)cccc1-c1cccc(NC(=O)c2cc(C3CC3)c(CN3CCCC[C@H]3C(=O)O)cn2)c1C" then?
7.47

For "CNCc1cnc(C(=O)Nc2cccc(-c3cccc(NC(=O)c4cc(C5CC5)c(CN5CCCC[C@H]5C(=O)O)cn4)c3C)c2C)cc1C1CC1" then?
7.62

For "CCOC(=O)[C@H](CO)NCc1cnc(C(=O)Nc2cccc(-c3cccc(NC(=O)c4cc(C5CC5)c(CNCCO)cn4)c3C)c2C)cc1C1CC1" then?
6.58

----------
Please provide measured IC50 for the entries that follow.
Target: interaction between PD-1 and PD-L1 (Homo sapiens)
Experiment: PD1-PDL1 HTRF binding activity test
Conditions: Cisbio PD-1/PD-L1 binding assay kit; percent inhibition vs DMSO
Expressed in nM, but write only the number.

What IC50 value was documented for this compound, Cc1c(NC(=O)c2cc(C3CC3)c(CNC3CCOCC3)cn2)cccc1-c1cccc(NC(=O)c2cc(C3CC3)c(CN3CCCC[C@H]3C(=O)O)cn2)c1C [Example 24] ?
0.91

For Cc1c(NC(=O)c2cc(C3CC3)c(CN3CCC[C@@H]3CO)cn2)cccc1-c1cccc(NC(=O)c2cc(C3CC3)c(CN3CCCC[C@H]3C(=O)O)cn2)c1C [Example 28] then?
4.17

For Cc1c(NC(=O)c2cc(C3CC3)c(CN3CC(C)(O)C3)cn2)cccc1-c1cccc(NC(=O)c2cc(C3CC3)c(CN3CCCC[C@H]3C(=O)O)cn2)c1C [Example 15] then?
0.68

For CCOC(=O)[C@@H](CO)NCc1cnc(C(=O)Nc2cccc(-c3cccc(NC(=O)c4cc(C5CC5)c(CN[C@@H](C)CO)cn4)c3C)c2C)cc1C1CC1 [Example 39-1] then?
3.22

For Cc1c(NC(=O)c2cc(C3CC3)c(CN[C@H]3CCC[C@@H]3O)cn2)cccc1-c1cccc(NC(=O)c2cc(C3CC3)c(CN[C@H](CO)C(=O)O)cn2)c1C [Example 40] then?
1.68

Numbers sourced from patent US20220380342A1.
